// reported melting point per item
Observable: melting point

1) O=Cc1ccc(OCC(F)(F)F)c(O)c1	133 to 135 °C
2) CS(=O)(=O)Nc1ccccc1C(=O)Nc1ccc(OCCN2CCCC2)cc1	221 to 222 °C
3) CSC(=NCCSCc1ccc(CN(C)C)o1)NC#N	78 to 79 °C
4) O=C(CC(=O)C(F)(F)F)c1ccc(OCc2ccccc2)cc1	220 to 224 °C
5) CN1[C@H]2CC[C@@H]1[C@H](c1nc(-c3ccncc3)no1)[C@@H](c1ccc3c(c1)OCO3)C2	110 to 112 °C
6) COc1ccc2c(c1)c(Cc1nc(-c3cccc(Br)c3)cs1)c(C)n2C(=O)c1ccc(Cl)cc1	208 to 212 °C
7) O=C1Nc2ccc(F)c(Cl)c2C(=O)N2CCC[C@@H]12	217 to 219 °C
8) CCc1nc2c(C)nn(C)c2c2nc(C)cn12	182 to 183 °C
9) CC1=C(c2ccc(OCC(C)NCC(O)c3cccc(Cl)c3)cc2)CCC(=O)N1 (stereo not given)	99 to 104 °C
10) CCOC(=O)C1=C(C)NN=C(C(=O)OC)C1c1ccc([N+](=O)[O-])cc1 (stereo not given)	205 to 206 °C

----------
Property: melting point; scope: individual compounds
Observable: melting point

1) COc1cc2c(cc1Nc1ncc(C(F)(F)F)c(Nc3ccc(N4CCOCC4)cc3OC)n1)N(C)C(=O)OCC2	221 to 223 °C
2) Nc1nnc(-c2ccc(Cl)cc2)s1	221 °C
3) CCc1cnc2c(NC(=O)c3c(Cl)cccc3Cl)cccc2c1CC(=O)OC	167 to 168 °C
4) CCOc1ccc(CCC=[N+]([O-])C(C)(C)C)cc1	54 to 57 °C
5) S=C=Nc1ccc(-c2nc(-c3ccco3)no2)cc1	136 to 137 °C
6) CCOCCn1c(CN2CCN(CC(O)COc3ccccc3)CC2)nc2cccnc21 (configuration not stated)	102 °C
7) Cc1c(Cl)cccc1N1C(=O)CN(c2ccccc2)C1=S	154 to 156 °C
8) Cc1ccc(-c2nc(CCl)cs2)s1	89 to 90 °C
9) CSc1ccc(C=O)c(Cl)c1	76 to 77 °C
10) NS(=O)(=O)C1C=CC=CC1(CCNC(=O)C=Cc1cccs1)OCc1ccccc1 (configuration not stated)	177 °C
11) CCCCCCCCCCCC(=O)OC1C(C)C(c2ccccc2)N(O)C(c2ccccc2)C1C (configuration not stated)	108 to 112 °C
12) N#Cc1cnc2cnc(F)cc2c1Oc1ccc(Cl)cc1F	186 to 188 °C
13) COC(=O)CC(c1ccc(F)cc1)C(C(=O)OC)C(=O)OC (configuration not stated)	75 to 76 °C
14) C#CCNC(=O)c1c(Br)cccc1[Si](C)(C)C	120 to 121 °C
15) CCC(CC)n1cc(C#N)nc(N2CCc3cc(Cl)cc(Cl)c32)c1=O	197 to 199 °C
16) CC(C)(C)c1nc(C=Cc2cccnc2)ncc1O	150 to 151 °C
17) CC(C)Cn1cnc2c(N)nc3cccnc3c21	230 to 232 °C
18) Nc1noc2cc3c(cc12)C1(CO3)C(=O)N(CC2CCCO2)c2ccccc21 (configuration not stated)	116 to 119 °C
19) CCCCc1ncc(/C=C(\Cc2cccs2)C(=O)O)n1Cc1ccc(C=CC(=O)O)cc1	199 to 203 °C
20) CCn1c(=O)c2c(nc(/C=C/c3ccc4c(c3)OCCO4)n2C)n(CC)c1=O	233 to 234 °C
21) CCOC(=O)N1CCc2nc3cccc(N)c3c(C)c2CC1	182 °C
22) C/C(=C\CC1OC(=O)NC1=O)c1cccc(OCc2nc(-c3ccc(OC(F)(F)F)cc3)oc2C)c1 (configuration not stated)	105 to 106 °C

----------
Observable: melting point

1) O=CNc1cccc2ccc(O)cc12	203 to 205 °C
2) NC(=O)CCN1CC2CN(Cc3ccccc3)CC(C1)O2	157 to 159 °C
3) CCCc1c(O)ccc2c1CCCC2=O	159 to 160 °C
4) CCOC(=O)C1=C(C)NC(CSCCC#N)=C(C(=O)OCC)C1c1cccc([N+](=O)[O-])c1 (stereo not given)	102 to 104 °C
5) O=S(=O)(c1ccccc1F)n1ccc2c(OCc3ccccc3)cccc21	117 to 120 °C
6) N#CCCNC(=O)c1cccc(-c2cccc3c2CN(Cc2cccc(C(F)(F)F)c2)CC3)c1	114 to 117 °C
7) COc1ccc2[nH]c(SCc3ncc(Br)c(N4CCCCC4)c3C)nc2c1	90 to 92 °C
8) CC(C)(C)NC(=O)[C@@H]1CN(NC(=O)OC(C)(C)C)CCN1NC(=O)Cc1ccccc1	134 to 135 °C
9) O=C(O)c1ccc(OCCC(c2ccccc2)(c2ccccc2)c2ccccc2)cc1	201 to 202 °C
10) Cc1ccccc1Cc1n[nH]c2c1c(=O)n(-c1cccc(OC(F)(F)F)c1)c1ncccc21	240 to 242 °C

----------
Each item that follows carries a reported melting point.
Observable: melting point

1. CC(=O)SCC(=Cc1ccc(Oc2ccccc2)cc1)C(=O)NCCC(=O)OCc1ccccc1	79 °C
2. CCOC(=O)c1nn(-c2ccc(CP(=O)(OCC)OCC)cc2)nc1C	60 to 62 °C
3. CS(=O)c1ccc(-c2nn(Cc3ccc(F)cc3F)c(=O)cc2-c2ccc(Cl)cc2)cc1 (stereo not given)	156 °C
4. N#Cc1nn(-c2c(Cl)cc(C(F)(F)F)cc2Cl)c(N)c1SC(F)(F)F	163 °C
5. CN1C(=O)C2(COc3cc4c(cc32)OCCO4)c2c(C(=O)O)cccc21 (stereo not given)	297 to 299 °C

----------
Each entry below carries its recorded melting point.
Observable: melting point

1. O=C(Nc1ccc2ccc(Cl)nc2n1)c1ccc(F)cc1	236 °C
2. CC(C)(C)NC(=O)CP(=O)(O)O	163 to 165 °C
3. O=C(Nc1ccccc1)c1ccc([N+](=O)[O-])cc1	90 to 93 °C
4. NC(=O)c1cc(-c2nccs2)[nH]c1C(CC1CCOCC1)c1ccc(S(=O)(=O)C2CC2)cc1 (stereo unspecified)	241 to 243 °C
5. FC(F)(F)Oc1ccc(-c2ncc(CBr)cn2)cc1	80 to 81 °C
6. CNc1c(OC)cc(C(=O)OC)cc1OC	49 to 51 °C

----------
Measured melting point accompanies every entry in the list below.
Observable: melting point

1) CC(C)(C)OC(=O)N1CCN(C(=O)OC(C)(C)C)C(C(=O)O)C1 (stereo not given)	231 to 233 °C
2) CC(C)C1(C)NC(c2ccccc2C(F)(F)F)=NC1=O (stereo not given)	109 to 110 °C
3) CNC(=O)c1cc(C(=O)O)c(Nc2ccc(I)cc2C)c(F)c1F	254 to 259 °C
4) CN(Cc1ccc([N+](=O)[O-])cc1)C1CCN(c2ccc(NS(C)(=O)=O)cc2)CC1	167 to 168 °C
5) CCOC(=O)c1cc2c3ccccc3n(Cc3ccccc3)c2nc1N1CCCCC1	155 to 156 °C

----------
Observable: melting point

1) COC(=O)c1cc(=O)c(OCc2ccccc2)co1	134 to 136 °C
2) CCS(=O)c1nc2ccc([N+](=O)[O-])cc2s1 (stereo not given)	145 to 149 °C
3) Cc1cc2c(cc1C)C(=O)C(C#N)C2=O	209 to 210 °C
4) CNc1c(F)cc2c(=O)c(C(=O)O)cn(-c3ccc(F)c(O)c3)c2c1C	> 280 °C
5) COc1cc([C@@H]2c3cc4c(cc3C(=O)C[C@H]2C(=O)O)OCO4)cc(OC)c1OC (relative stereo)	221 to 223 °C
6) COc1ccc(C(=O)CSc2ccccc2)cc1	83 to 85 °C
7) CCOCCc1nc(NS(=O)(=O)c2cccc(Cl)c2C)sc1CN(C)C	152 to 153 °C
8) COc1ccccc1NC(=O)Nc1ccc(CC(=O)O)cc1OC	182 to 185 °C
9) CCOC(=O)c1c(-c2ccc(C)cc2)c2ccncc2c(=O)n1C	134 to 136 °C
10) N#Cc1c([N+](=O)[O-])ccc(N2CCCC2)c1Cl	170 to 173 °C

----------
Reported melting point values for a set of molecules
Observable: melting point

1) CC1CCN(c2occ(C(C)(C)C)c2C#N)C1=O (stereo not given)	88 to 90 °C
2) Cc1c(-c2ccncc2)[nH]c2c1C(=O)CC(C)C2 (stereo not given)	247 to 248 °C
3) Cc1cccc(C(=O)C=CC(=O)O)c1	115 to 117 °C
4) CNS(=O)(=O)Cc1ccc2[nH]cc(C3CCN(C)C3)c2c1 (stereo not given)	160 to 162 °C
5) CCC(Oc1ccc2ncccc2c1)C(=O)O (stereo not given)	78 to 80 °C
6) CCOC(=O)c1cc(Cl)c(N)c2c1OCCO2	105 to 106 °C
7) COc1ccccc1N1CCN(CCn2c(O)nc3sc4c(c3c2=O)CCN(C(C)=O)C4)CC1	135 to 137 °C
8) CCn1cc(C(=O)O)c(=O)c2cc(F)c(N3CCNC(c4c[nH]c5ccccc45)C3)cc21 (stereo not given)	230 °C
9) N#Cc1cccc(-c2nc(S(=O)(=O)C(F)(F)F)cc3cccnc23)c1	102 to 104 °C
10) CCOC(=O)Cc1cccc2c(-c3ccc([N+](=O)[O-])cc3)nccc12	89.5 to 90.5 °C
11) O=C1c2cccc3c(Cl)ccc(c23)C(=O)N1CCN1CCC(c2noc3cc(F)ccc23)CC1	207 to 209 °C
12) CCCCCCCCCCNC(=O)C=Cc1cccc(N2CC(C(=O)O)CC2=O)c1 (stereo not given)	151 to 152 °C
13) CC(=O)OC(c1ccc(C(F)(F)F)cc1[N+](=O)[O-])c1cnoc1C1CC1 (stereo not given)	82 °C
14) CCOC(=O)/C=C(\C)c1ccc(C2COc3c(C)c(C)c(NC(=O)CC(C)(C)C)c(C)c32)cc1 (stereo not given)	179 to 180 °C
15) COCCOc1cc2ncnc(Cl)c2cc1OCCOC	108 to 109 °C
16) Cc1nnc(-c2ccc3occ(-c4ccc(S(=O)(=O)C(C)C)cc4)c3c2)o1	229 to 230 °C
17) COc1ccc(S(=O)(=O)Nc2cccnc2Nc2ccc(OC(=O)c3ccccc3)cc2)cc1	208 to 210 °C
18) Cc1ccc(-c2cn(C)c(-c3ccc(C)s3)n2)s1	138 to 140 °C
19) CCN(CC)c1ccc(Nc2ncc3ccc(=O)n(CC)c3n2)cc1	108 to 109 °C
20) CCn1c(C(=O)OC)c(-c2ccc(OC)c(OC)c2)c2cc(OC)c(OC)cc21	191 to 192 °C
